Target: cyclin D2-Cdk6 (Homo sapiens, UniProt Q00534)
Construct: made in house; host or cells: Sf9 insect cells (baculovirus co-infection)
Sequence (Q00534 whole entry): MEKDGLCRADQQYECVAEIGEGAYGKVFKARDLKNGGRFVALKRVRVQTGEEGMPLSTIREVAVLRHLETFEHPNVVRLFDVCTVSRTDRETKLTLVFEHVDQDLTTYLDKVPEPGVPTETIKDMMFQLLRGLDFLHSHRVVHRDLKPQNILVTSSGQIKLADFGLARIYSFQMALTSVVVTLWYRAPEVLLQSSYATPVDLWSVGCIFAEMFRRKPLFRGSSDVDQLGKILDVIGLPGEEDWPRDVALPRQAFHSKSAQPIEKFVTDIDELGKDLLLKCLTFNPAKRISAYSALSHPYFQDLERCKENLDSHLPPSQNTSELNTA
Sequence (P30279 whole entry partner): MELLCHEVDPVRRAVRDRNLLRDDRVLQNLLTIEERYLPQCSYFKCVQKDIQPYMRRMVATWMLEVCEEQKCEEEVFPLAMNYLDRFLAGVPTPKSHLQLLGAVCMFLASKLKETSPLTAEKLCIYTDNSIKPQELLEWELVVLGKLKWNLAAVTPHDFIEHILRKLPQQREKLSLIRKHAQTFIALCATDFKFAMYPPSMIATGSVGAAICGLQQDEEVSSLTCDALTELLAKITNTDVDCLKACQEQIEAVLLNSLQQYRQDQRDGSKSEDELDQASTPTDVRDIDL
Assay: Cyclin D2-Cdk6 inhibitory activity (33P-ATP phosphorylation of RB peptide substrate)
Format: biochemical
Conditions: 50 μM ATP, 100 μM substrate peptide, 30° C., 40 minutes; read-out: IC50 against cyclin D2-Cdk6 activity
Protocol: In the same manner as with cyclin D2-Cdk4, cDNAs of Cdk6 and its activating factor cyclin D2 were each introduced into a baculovirus expression vector to obtain a recombinant vaculovirus; it was then co-infected to an insect cell Sf9 to highly express active cyclin D2/Cdk6 complexes. […] The compounds of [11], [51] and [134] were chosen as typical compounds of the present invention, and IC50 values against cyclin D2-Cdk6 activity of those compounds were determined.
pIC50: −log10 of the molar value.
observable: pIC50

INSERT INTO assay_data (compound, observable, observed_result) VALUES
  ('CO[C@@H]1CCCN(Cc2cc3c4nc(c(=O)[nH]c4c2)-c2cccc4c(=O)n([nH]c24)CCN2CC[C@@H](C2)O3)C1 [[11]]', 'pIC50', 7.62);

1. O=c1[nH]c2cc(CN3CCCCC3)cc3c2nc1-c1cccc2c(=O)n([nH]c12)CCCCCO3 [[51]]
2. C[C@@H]1C[C@H]2CN1CCn1[nH]c3c(cccc3c1=O)-c1nc3c(cccc3[nH]c1=O)O2 [[134]]
Incoming: Larger number for pIC50: 1 , or 2 ? Lab log: write the label of the selected item as the result.
Outgoing: 2
(2: 7.92, 1: 7.60)
